assay.overview: protein stability index of a GFP-peptide fusion (yeast GPS) (PSI 1-4); higher = more stable; sorted into four equal gates, so the index is relative within each strain
experimental.setup: doa10∆
Items are presented alongside their recorded protein stability index.

These recorded examples may help you get a feel for the data.
NGASVPINLHPSKLVIT [RPL26A] = 1.75
KLKYHDFLRKATAFNKT [RPL16A] = 1.16
KDAQKKDIEKLTNEISD [YIL149C/MLP2] = 2.54
IDKFIMVVQKYKLSTVV [GRR1] = 1.73
SVGLPSKVASSLVIIIL [ECM29] = 2.21

Data request: Look up protein stability index: SPIKNGSCTRQLAGKSG [YOR098C/NUP1]
Data returned: 3.32

Data request: Request the reported protein stability index associated with IFKGIGGNFKDLSTLVH [GAL11]
Data returned: 2.07

Data request: Sample MQDPDGIDINTKIFNSV [YCG1] — what was its protein stability index?
Data returned: 2.93

Data request: Quick check: protein stability index of DAGVTFNKEQLNKFKKA [ECM29] ?
Data returned: 1.83

Data request: Please report the recorded protein stability index for KPSRTSRQVQKRPRSRT [RPS7A] .
Data returned: 3.08

Data request: What value of measured protein stability index is listed for VFYRGMTMQVAVPRDEL [FAS1] ?
Data returned: 1.62

Data request: What measured protein stability index goes with YREAPVIYRGPEPSHID [RET1] ?
Data returned: 2.83

Data request: Tell me the measured protein stability index of DFDNIEFKKIPRVKGFK [SEC65] , please.
Data returned: 2.84

Data request: Which protein stability index is reported for this sequence? TFHDELNLKFKEKWPSL [YML103C/NUP188]
Data returned: 3.23

Data request: Consider the sequence GLSLAGLAPDARVLSNY [PRE5] and give its measured protein stability index.
Data returned: 1.23

Data request: Which protein stability index value is on record for NRKVLQALEKIGIVEIS [RPS19A] ?
Data returned: 2.34

Source listed as the supplement of paper PMC9732359.
